- SYSTEM NAME: T1, rat IAPP (rat, UniProt P12969 38-74)
- T1 construct: Used as the soluble analyte in the Biacore assay in place of human IAPP; also called rat islet amyloid polypeptide
- T1 peptide (looked up): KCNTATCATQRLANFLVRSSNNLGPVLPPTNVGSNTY
- ASSAY INFO: SPR (Biacore), antibody captured on anti-human CM5 chip, rat IAPP as analyte, global 1:1 fit
PROPERTY MEASURED: kon (M⁻¹ s⁻¹)
Express the result in M⁻¹ s⁻¹ but write the number alone.

Here is how some binders turned out for kon.
humanized 3H6 antibody version H2L2 (antibody, V domains shown, also called h3H6-H2L2) VH: EVQLVESGGGLVQPGGSLKLSCAASGFTFSNYWMYWVRQAPGKGLEWVGEIRLKSDNYATHYAESVKGRFTISRDDSKNTAYLQMDSLKTEDTAVYYCTTFDYWGQGTLVTVSS VL: DVVMTQSPLSLPVTLGQPASISCKSSQSLLDSDGKTYLNWLQQRPGQSPKRLIYLVSKLDSGVPDRFSGSGSGTDFTLKISRVEAEDVGVYYCWQGRHFPYTFGQGTKLEIK
75700
humanized 3H6 antibody version H2L1 (antibody, V domains shown, also called h3H6-H2L1) VH: EVQLVESGGGLVQPGGSLKLSCAASGFTFSNYWMYWVRQAPGKGLEWVGEIRLKSDNYATHYAESVKGRFTISRDDSKNTAYLQMDSLKTEDTAVYYCTTFDYWGQGTLVTVSS VL: DVVMTQSPLSLPVTLGQPASISCKSSQSLLDSDGKTYLNWLQQRPGQSPKRLIYLVSKLDSGVPDRFSGSGSGTDFTLKISRVEAEDVGVHYCWQGRHFPYTFGQGTKLEIK
85200
humanized 3H6 antibody version H1L1 (antibody, V domains shown, it was captured on an anti-human chip; also called h3H6-H1L1) VH: EVQLVESGGGLVQPGGSLKLSCAASGFTFSNYWMYWVRQAPGKGLEWVGEIRLKSDNYATHYAESVKGRFTISRDDSKNTVYLQMDSLKTEDTAVYYCTIFDYWGQGTLVTVSS VL: DVVMTQSPLSLPVTLGQPASISCKSSQSLLDSDGKTYLNWLQQRPGQSPKRLIYLVSKLDSGVPDRFSGSGSGTDFTLKISRVEAEDVGVHYCWQGRHFPYTFGQGTKLEIK
113000

Now turn to the next binder.
Memo: humanized 3H6 antibody version H3L2 (antibody, V domains shown, also called h3H6-H3L2) VH: EVQLVESGGGLVQPGGSLKLSCAASGFTFSNYWMYWVRQAPGKGLEWVGEIRLKSDNYATHYAESVKGRFTISRDDSKNTAYLQMDSLKTEDTAVYYCTIFDYWGQGTLVTVSS VL: DVVMTQSPLSLPVTLGQPASISCKSSQSLLDSDGKTYLNWLQQRPGQSPKRLIYLVSKLDSGVPDRFSGSGSGTDFTLKISRVEAEDVGVYYCWQGRHFPYTFGQGTKLEIK , reported kon: 188000
